Assay: Cytotoxicity against human U937 cells assessed as cell viability at 10 uM after 72 hrs by trypan blue staining assay
Conditions: U-937, 72 h
Mark condition met only for viability at 10 µM values smaller than 80%; exact matches and larger values are condition not met.

# compound, class-label
records = [
    ("COc1cc(-c2cc(=O)c3ccc4c(c3o2)OCO4)cc(OC)c1OC", "condition not met"),
    ("COc1ccc(-c2cc(=O)c3ccc4c(c3o2)OCO4)cc1OC", "condition not met"),
    ("COc1cc(C2CC(=O)c3ccc4c(c3O2)OCO4)cc(OC)c1OC (stereo unspecified)", "condition met"),
    ("COc1ccc(-c2cc(=O)c3ccc4c(c3o2)OCO4)cc1", "condition met"),
]
